meta.source: paper PMC4335062

Target: NFE2L2 (Homo sapiens)
Construct: made in house
Sequence (Q16236 497-560 limits assumed): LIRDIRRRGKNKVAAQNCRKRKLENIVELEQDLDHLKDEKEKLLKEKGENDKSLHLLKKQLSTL
Assay: Direct-binding FRET assay
Settings: 37°C; C-terminal rhodamine design; mean or single; read-out: Kd
Where no end group is shown, it is not given here.
metric: Kd

# sequenceContent, result
measured = [
    ("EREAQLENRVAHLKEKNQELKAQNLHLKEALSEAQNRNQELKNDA [XBP1-d1]", "> 1000 nM"),
]

q: Please indicate Kd recorded for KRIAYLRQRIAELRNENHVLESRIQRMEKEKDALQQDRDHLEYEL [ATF5-d1]
a: > 5000 nM

###

Target: BATF3 (Homo sapiens, UniProt Q9NR55)
Construct: made in house
Sequence (Q9NR55 35-98 limits assumed): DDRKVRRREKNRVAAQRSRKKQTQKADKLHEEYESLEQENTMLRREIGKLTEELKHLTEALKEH
Assay: Direct-binding FRET assay
Settings: Kd, 37°C; N-terminal rhodamine design; mean or single
pKd: −log10 of the molar value. Where no end group is shown, it is not given here.
metric: pKd

q: Please report the measured pKd for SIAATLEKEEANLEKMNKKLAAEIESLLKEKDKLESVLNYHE [JUN-d1] tested on BATF3 (Homo sapiens, UniProt Q9NR55).
a: < 6.00

###

Target: BACH1 (Homo sapiens)
Test: Direct-binding FRET assay
Design: made in house
Conditions: 23°C; C-terminal fluorescein design as donor, TAMRA target titrated
pKd: −log10 of the molar value. Where no end group is shown, it is not given here.
metric: pKd

q: Please report the measured pKd for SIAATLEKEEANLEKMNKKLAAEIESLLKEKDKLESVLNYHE [JUN-d1] tested on BACH1 (Homo sapiens).
a: < 6.00

###

Biological target: NFE2 (Homo sapiens, UniProt Q16621)
Construct: made in house
Sequence (Q16621 266-329 limits assumed): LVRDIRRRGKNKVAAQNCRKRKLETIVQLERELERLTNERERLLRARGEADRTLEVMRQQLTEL
Test: Direct-binding FRET assay
Where no end group is shown, it is not given here.
metric: Kd

q: Please indicate Kd recorded for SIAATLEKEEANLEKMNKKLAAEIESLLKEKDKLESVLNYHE [JUN-d1]
a: > 1000 nM

###

Target: BACH1 (Homo sapiens, UniProt O14867)
Sequence (O14867 557-620 limits assumed): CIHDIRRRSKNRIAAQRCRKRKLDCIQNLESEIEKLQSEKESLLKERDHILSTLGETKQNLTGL
Assay: Direct-binding FRET assay
Parameters: made in house
Conditions: 23°C; N-terminal rhodamine design; repeat 2; read-out: Kd
Protocol: The direct binding assay was performed manually in 384-well plates and is similar to a previously described assay. Wells were filled with 20 μL of 1 mM TCEP-HCl. […] Briefly, the Kd of the designed peptide homodimer was experimentally determined and used with previously determined target homodimer Kd values to determine the heterodimer Kd. […] A minimum 15% change in the donor fluorescence upon titrating the acceptor peptide from 0 to 1000 nM was required for a fit to be attempted. […]
Where no end group is shown, it is not given here.
metric: Kd

q: Please report the measured Kd for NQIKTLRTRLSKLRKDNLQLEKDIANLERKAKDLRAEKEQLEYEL [ATF4-d1] tested on BACH1 (Homo sapiens, UniProt O14867).
a: > 5 µM
